- system_under_test: CD137 expressed on the cell surface of HT1080_4-1BB cells (human, UniProt Q07011 24-255); note: test concentration or dose not given here
- Sequence (Q07011 24-255): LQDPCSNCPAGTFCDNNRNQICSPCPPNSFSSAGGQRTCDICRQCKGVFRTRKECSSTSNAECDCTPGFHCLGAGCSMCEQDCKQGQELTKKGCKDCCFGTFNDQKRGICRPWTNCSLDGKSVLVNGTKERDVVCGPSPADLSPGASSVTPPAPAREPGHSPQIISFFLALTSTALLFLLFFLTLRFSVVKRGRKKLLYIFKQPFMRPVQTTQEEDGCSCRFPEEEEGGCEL
- method_notes: cell-based or functional assay
measured_endpoint: Functional assay Cross-linked by F(ab′)2 fragment IL-8 (abs. corr.)
Give the value in abs. corr. but do not write abs. corr. after it.

Examples with their reported Functional assay Cross-linked by F(ab′)2 fragment IL-8 follow.
binder: P018.S.14.A.A04 (antibody, V domains shown, V regions on human Ig constant parts; also called AB137_9) VH: QSLEESGGRLVTPGTPLTLTCTVSGFSLNDYWMSWVRQAPGKGLEWIGYIDVGGSLYYASWAKGRFTISRTSTTVDLKMTSLTTEDTATYFCARGGLTYGFDLWGPGTLVTVSS VL: DIVMTQTPASVSEPVGGTVTINCQASEDISSYLAWYQQKPGQRPKRLIYGASDLASGVPSRFSASGSGTEYALTISDLESADAATYYCHYYATISGLGVAFGGGTEVVVK
data_value: 0.972

binder: P018.S.13.A.G04 (antibody, V domains shown, V regions on human Ig constant parts; also called AB137_8) VH: QSLEESGGRLVTPGTPLTLTCTASGFSLSSYDMSWVRQAPGKGLEYIGYISSSGNTYYASWAKSRFTISKTSTTVDLKITSPTTEDTATYFCAREGDYWDFNLWGPGTLVTVSS VL: AQVLTQTPSSVSAAVGGTVTINCQASQSISNLLAWYQQKPGQRPRLLIYRASTLASGVPSRFKGSGSGTEFTLTISDLESEDAATYYCAGGFPGLDTGATFGGGTEAVVT
data_value: 1.8

binder: P018.S.13.A.G03 (antibody, V domains shown, V regions on human Ig constant parts; also called AB137_7) VH: QSLEESGGRLVTPGTPLTLTCTASGFSLSSYDVSWVRQAPGKGLEYIGFIGSDGSAHYATWVKGRFTISKTSTTVDLKITSPTTEDTATYFCARDWNDYWAHDLWGPGTLVTVSS VL: AQVLTQTTSPVSAAVGGTVTINCQASQIVTSKSALSWYQQKPGQPPRLLIYKASTLASGVPSRFSGSGSGTQFTLTISDLESDDAATYYCAGGYYNSGDLNPFGGGTEVVVK
data_value: 0.789

binder: P018.S.08.A.E03 (antibody, V domains shown, V regions on human Ig constant parts; also called AB137_2) VH: QSVEESGGRLVTPGTPLTLTCTVSGFSLTYYAVTWVRQPPGKGLEWIGVIYDNGATAFATWAKGRFTMSKNSTTVALKVTSPTTEDTATYFCARSANNAWSTYSNLWGQGTLVTVSS VL: DIVMTQTPSSVSAAVGGTVTINCQASEDISSYLSWYQQKLGQPPKLLIYKASTLESGVPSRFKGSGSGTEYTLTISDLESDDAATYYCQSYYSGSISGYGFVFGGGTGVVVK
data_value: 2.02

binder: P018.S.14.A.D06 (antibody, V domains shown, V regions on human Ig constant parts; also called AB137_10) VH: QSVEESGGRLVTPGTPLTLTCTVSGFSLSTYAMIWVRQAPGKGLEWIGVVYDNGYISHATWVKGRFTISKTSTTVGLEITSPTTEDTATYFCARSADGSWSTYFNLWGQGTLVTVSS VL: DIVMTQTPASVEAAVGGTVTIKCQASESISNYLAWYQQKPGQPPKLLIYKASTLASGVSSRFKGSGSGTEFTLTISDLESADAATYYCQTNYCCSSSDNGFAFGGGTEVVVK
data_value: 1.52

Here is another binder to look at.
Measured Functional assay Cross-linked by F(ab′)2 fragment IL-8, P018.S.13.A.A05 (antibody, V domains shown, V regions on human Ig constant parts; also called AB137_4) VH: QSLEESGGRLVTPGTPLTLTCTASGFSLSRYDMSWVRQAPGKGLEYIGVISSSGGTNYANWAKGRFTISKTSTTVDLKITSPTTEDTATYFCAREGDYWDFNLWGPGTLVTVSS VL: AQVLTQTPSSVSAAVGGTVTINCQASQSISNLLAWYQQKPGQPPKLLIYGASTLASGVPSRFSGSGSGTEFTLTISDLESDDAATYYCAGGFPGLDTVAAFGGGTEAVVT : 2.57
